- Tested on: USP8 MIT domain
- assayName: SPOT array of predicted peptides from known interactors, USP8 MIT domain
- Format: binding, human
- conditionsUsed: SPOT array, GST-tagged MIT 100 µM, overnight 4 °C, chemiluminescence; highest intensity = DNAJB6
- Method: To further assess the SLiM-based interactions of the USP8 MIT domain, we designed a peptide array tiling 24 potential binding sites in previously reported USP8 interactors. […] The ECL reagent (Clarity Max Western ECL substrate, 1705062, BioRad) was used for chemiluminescence read-out with the ChemiDoc Imaging system (BioRad). The images were analysed with Fiji (ImageJ2 version 2.9.0). […]
quantityKind: Percentage (%) normalized to highest intensity and corrected for background
Field format: number, assumed %, no unit text.

GET Percentage (%) normalized to highest intensity and corrected for background where system = USP8 MIT domain and item = MDLLFGRRKTPEELL [CHMP2A, Charged multivesicular body protein 2a peptide]
-8

GET Percentage (%) normalized to highest intensity and corrected for background where system = USP8 MIT domain and item = DPSNNFRLHNGRS [CFLAR, CASP8 and FADD-like apoptosis regulator peptide]
31

GET Percentage (%) normalized to highest intensity and corrected for background where system = USP8 MIT domain and item = SGETDLKLLEESIA [NR3C1, Glucocorticoid receptor peptide]
-4.47

GET Percentage (%) normalized to highest intensity and corrected for background where system = USP8 MIT domain and item = QGPALRYFQLPPRAA [SHANK1 B6, SHANK1 peptide, array position B6]
7

GET Percentage (%) normalized to highest intensity and corrected for background where system = USP8 MIT domain and item = APLLCLALLPALAA [NOTCH1, Neurogenic locus notch homolog protein 1 peptide]
2

GET Percentage (%) normalized to highest intensity and corrected for background where system = USP8 MIT domain and item = TEQETLALLEVKRS [TMEM79, Transmembrane protein 79 peptide]
-4

GET Percentage (%) normalized to highest intensity and corrected for background where system = USP8 MIT domain and item = SQKELESYMMRAQQLL [SYNE2_853 − 868, Nesprin-2 peptide]
-4

GET Percentage (%) normalized to highest intensity and corrected for background where system = USP8 MIT domain and item = GELLLLSLLLLLEP [PDGFRB, Platelet-derived growth factor receptor beta peptide]
-3.37

GET Percentage (%) normalized to highest intensity and corrected for background where system = USP8 MIT domain and item = AGAALLALLAALCP [EGFR, Epidermal growth factor receptor peptide]
6
